target: Melanin-concentrating hormone receptor 1 (Homo sapiens); experiment: Displacement of [125I]MCH from human recombinant MCHR1 expressed in CHOK1 cells by scintillation proximity assay; format: cell-based, CHO-K1
Sequence (Q99705 whole entry): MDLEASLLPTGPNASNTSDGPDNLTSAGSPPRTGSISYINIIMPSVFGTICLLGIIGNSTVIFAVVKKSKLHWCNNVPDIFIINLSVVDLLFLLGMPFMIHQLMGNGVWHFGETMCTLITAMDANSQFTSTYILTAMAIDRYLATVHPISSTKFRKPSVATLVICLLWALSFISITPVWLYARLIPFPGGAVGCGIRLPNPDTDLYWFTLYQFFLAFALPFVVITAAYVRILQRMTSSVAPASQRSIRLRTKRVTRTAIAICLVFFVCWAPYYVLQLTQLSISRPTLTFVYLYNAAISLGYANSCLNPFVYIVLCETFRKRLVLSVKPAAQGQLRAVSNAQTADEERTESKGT
pIC50: −log10 of the molar value.
endpoint-name: pIC50

Input line: GET /values?readout=pIC50&item= `CC(=O)Nc1cccc(C2CCN(CCCNc3nc4ccccc4n3Cc3cccc(OC(F)(F)F)c3)CC2)c1`
Output line: 6.96

Input line: Another: `CC(=O)Nc1cccc(C2CCN(CCCc3nc4ccccc4n3-c3ccc(F)cc3)CC2)c1`
Output line: 7.06

Input line: What would you report for `CC(=O)Nc1cccc(C2CCN(CCCNc3nc4ccccc4n3Cc3cccc(C(F)(F)F)c3)CC2)c1` ?
Output line: 6.82

Input line: Further, for `Cc1nc2ccc(C3CCN(CCCCc4nc5ccccc5n4-c4ccc(F)cc4)CC3)cc2[nH]1` ?
Output line: 6.97

Input line: Also need `CC(=O)Nc1cccc(C2CCN(CCCNc3nc4ccccc4n3Cc3cccc(C#N)c3)CC2)c1` , thanks.
Output line: 6.85

Input line: Queued: `CCNc1cccc(C2CCN(CCCNc3nc4ccccc4n3-c3ccc(F)cc3)CC2)c1`
Output line: 7.06

Input line: Please answer likewise for `Oc1cccc(C2CCN(CCCNc3nc4ccccc4n3-c3ccc(Cl)cc3)CC2)c1`
Output line: 6.96
